Value source: ChEMBL document CHEMBL3875152

CC50 at 48 h overview
- assay-info: Cytotoxicity against mouse L929 cells assessed as decrease in cell viability after 48 hrs by MTT method
- Assay type: toxicity
Report as a plain number; the unit µM is understood.

Observe how each entry below is paired with its result.
molecule=O=C(N/N=C/c1cccs1)c1nn(-c2ccccc2)c(=O)c2c1cnn2-c1ccccc1 measured_parameter="CC50 at 48 h" endpoint_result=186
molecule="C[C@@H]1[C@H](O)[C@@H](C)/C=C/C=C/C=C/C=C/C=C/C=C/C=C/[C@H](O[C@@H]2O[C@H](C)[C@@H](O)[C@H](N)[C@@H]2O)C[C@@H]2O[C@](O)(C[C@@H](O)C[C@@H](O)[C@H](O)CC[C@@H](O)C[C@@H](O)CC(=O)O[C@H]1C)C[C@H](O)[C@H]2C(=O)O [AMPHOTERICIN B]" measured_parameter="CC50 at 48 h" endpoint_result=79.1

Please find the next molecule below.
Return reported CC50 at 48 h. Input molecule: O=C(N/N=C/c1ccc(-c2cccs2)s1)c1nn(-c2ccccc2)c(=O)c2c1cnn2-c1ccccc1
77.4

###

- assay-info: Cytotoxicity against mouse J774A1 cells assessed as decrease in cell viability after 48 hrs by MTT method
- Assay type: toxicity, J774.A1
measured-parameter: CC50 at 48 h (µM)
Report as a plain number; the unit µM is understood.

Observe how each entry below is paired with its result.
entry_smiles=O=C(N/N=C/c1cccs1)c1nn(-c2ccccc2)c(=O)c2c1cnn2-c1ccccc1 measured_parameter="CC50 at 48 h" endpoint_result=106
entry_smiles=C[C@@H]1[C@H](O)[C@@H](C)/C=C/C=C/C=C/C=C/C=C/C=C/C=C/[C@H](O[C@@H]2O[C@H](C)[C@@H](O)[C@H](N)[C@@H]2O)C[C@@H]2O[C@](O)(C[C@@H](O)C[C@@H](O)[C@H](O)CC[C@@H](O)C[C@@H](O)CC(=O)O[C@H]1C)C[C@H](O)[C@H]2C(=O)O measured_parameter="CC50 at 48 h" endpoint_result=16.8

Please find the next compound below.
Return reported CC50 at 48 h. Input compound: O=C(N/N=C/c1ccc(-c2cccs2)s1)c1n[nH]c(=O)c2c1cnn2-c1ccccc1
114
